# TEST CONTEXT: in ethyl acetate, 303.15 K
RESULT TYPE: solubility (mole fraction)
Lab note: jot the number down without any unit.

Input: # get_value(readout='solubility (mole fraction)', item= O=[N+]([O-])c1cccc2cccc([N+](=O)[O-])c12 )
Output: 0.0102

###

# TEST CONTEXT: in acetone, 295.65 K
RESULT TYPE: solubility (mole fraction)
Lab note: jot the number down without any unit.

Input: # get_value(readout='solubility (mole fraction)', item= O=[N+]([O-])c1cccc2cccc([N+](=O)[O-])c12 )
Output: 0.0205

###

# TEST CONTEXT: in methanol, 300.65 K
RESULT TYPE: solubility (mole fraction)
Lab note: jot the number down without any unit.

Input: # get_value(readout='solubility (mole fraction)', item= O=[N+]([O-])c1cccc2cccc([N+](=O)[O-])c12 )
Output: 0.000821
